Biological target: Genome polyprotein (Poliovirus type 1 (strain Mahoney))
Assay: poliovirus RdRp elongation inhibitors, primary screen, biochemical, fluorescence polarization, total intensity (AID 588519)
Details: poliovirus polymerase elongation, measured here: FP z-score, stronger effect = lower value
Screen size: about 150,000 compounds; about 1,000 (0.67%) were called active. This excerpt belongs to a sample that is enriched for actives.
Label scheme, based on z-score: low class (below -0.3), middle class (-0.3 to below 0.2), high class (0.2 or more)

Example cases with answers are listed next.
{"columns": ["Molecule", "Category"],
 "data": [
  ["O=C(O)CN1C(=O)/C(=C2/OC(=O)c3ccccc32)SC1=S", "middle class"],
  ["CCn1c2ccccc2c2cc(CN3CCN(Cc4cccc(Cl)c4)CC3)ccc21", "middle class"],
  ["CSC(=S)Nc1ccc(C)cc1", "middle class"],
  ["O=C(O)CSc1nnc(-c2ccccc2)n1-c1ccccc1", "middle class"],
  ["O=C(O)CCCN1C(=O)/C(=C2\\SC(=S)N(CCCC(=O)O)C2=O)SC1=S", "low class"],
  ["Cc1ccc(Cn2nc(C)c(/C=C/C(=O)OCc3nc4ccccc4c(=O)n3CC#N)c2C)cc1", "high class"],
  ["O=C(CN1C(=O)c2ccccc2C1=O)NN1C(=O)CSC1=S", "low class"],
  ["CCn1c(C(C)C)n[nH]c1=S", "high class"],
  ["O=C1c2ccccc2C(=O)N1CC1OCc2ccccc2CO1", "high class"],
  ["C=CCSc1nnc(NC(=O)CSc2nc(C)cc(=O)[nH]2)s1", "low class"]
]}

GET /class?item= O=C(CC12CC3CC(CC(C3)C1)C2)Nc1noc2ccccc12
middle class

Which band does COC(=O)c1cc(N2CCNCC2)nc2ccccc12 fall in?
low class

* * *

Target: Genome polyprotein (Poliovirus type 1 (strain Mahoney)) (UniProt P03300)
Sequence (P03300 1749-2209 limits assumed): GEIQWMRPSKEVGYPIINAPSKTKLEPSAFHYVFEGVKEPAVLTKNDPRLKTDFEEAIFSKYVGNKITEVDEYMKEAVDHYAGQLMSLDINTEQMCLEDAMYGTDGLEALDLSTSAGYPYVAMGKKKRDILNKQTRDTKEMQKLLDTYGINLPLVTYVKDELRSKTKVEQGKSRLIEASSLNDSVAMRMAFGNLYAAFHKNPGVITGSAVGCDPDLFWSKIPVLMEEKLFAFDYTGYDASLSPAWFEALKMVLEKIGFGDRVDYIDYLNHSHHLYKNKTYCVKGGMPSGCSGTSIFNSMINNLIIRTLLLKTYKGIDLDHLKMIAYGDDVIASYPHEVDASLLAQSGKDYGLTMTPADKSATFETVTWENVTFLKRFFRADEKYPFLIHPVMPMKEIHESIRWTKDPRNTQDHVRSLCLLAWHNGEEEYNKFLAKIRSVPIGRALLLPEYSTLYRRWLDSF
Test: poliovirus RdRp elongation inhibitors, primary screen, biochemical, fluorescence polarization, total intensity (AID 588519)
Conditions: poliovirus polymerase elongation, stronger effect = lower value, compound at 16.7 µg/mL
Among all 150,000 compounds or so, about 1,000 (0.67%) were called active. Many of the other results were omitted from the sample, so actives are more common in it than they were.
# % elongation per entry
Give the value, in units of %, as a plain number.

These solved cases illustrate the format of a correct answer.
{"columns": ["Compound", "Unit of measurement", "% elongation"],
 "data": [
  ["COC(=O)COc1ccc(CSc2nc3ccccc3c(=O)n2C)cc1", "%", 100],
  ["NC(=S)N1CCCCC1", "%", 99],
  ["Cc1c(C(=O)NC(C)CCc2ccccc2)oc2c1C(=O)CCC2 (centres undefined)", "%", 102],
  ["CCOC(=O)C1(C(=O)OCC)CCN(S(=O)(=O)c2ccc(C)cc2)c2ccccc2C1=O", "%", 107],
  ["COc1ccc(O)c(C(=O)c2cnn3c(N)nnc3c2)c1", "%", 84],
  ["O=C(COC(=O)c1cccs1)NCc1cccs1", "%", 100],
  ["COc1ccc(-c2noc(CC(=O)N(C)c3ccccc3)n2)cc1", "%", 106],
  ["CC1(C)CC(=O)C=C(Nc2sc3c(c2C#N)CCCC3)C1", "%", 98]
]}

Short answer for O=C(COC(=O)C1CCC(=O)N1)Nc1nc(-c2ccccc2)cs1 (centres undefined) : % elongation was 101

Briefly, % elongation measured for CC(C)Sc1n[nH]c(=S)n1N : 83

// O=c1c(Cl)c(Cl)cnn1-c1nc2ccccc2[nH]1 : % elongation value = 48

For COc1ccc(O)c(C(=O)c2cnn(C(=O)c3ccc4c(=O)n5c(nc4c3)CCC5)c2)c1 the compound record lists % elongation as 104

Looking up Cn1cccc1C(=O)Nc1nccs1 , I see its % elongation listed as 111

So, CN(C)/C=C1/C(=O)Nc2ccccc21 ? Its % elongation was 98

Entry CCc1ccccc1N1CC(c2nc3ccccc3n2CCCCOc2ccccc2)CC1=O (centres undefined) , % elongation reported as 63

Documented % elongation of O=C(CN1C(=O)c2ccccc2C1=O)NN1C(=O)CSC1=S : 97

# compound Cc1cc(C)c(C(N)=O)c(SCC(=O)Nc2c(C)n(C)n(-c3ccccc3)c2=O)n1 ; its % elongation = 103

Short answer for COc1ccc(OCCCn2c(C3CC(=O)N(c4ccc(F)cc4)C3)nc3ccccc32)cc1 (centres undefined) : % elongation was 109

Lab book: % elongation of CCOC(=O)c1c(N)sc2c1CCCS2 noted as 64

% elongation recorded for this compound, CC(C)n1c(-c2ccncc2)n[nH]c1=S , is 102
